- tested.system: Retinoic acid receptor RXR-alpha (Homo sapiens)
- method: qHTS assay to identify small molecule agonists of the RXR signaling pathway (AID 1159527); also: nearly all actives have a fitted effect of over 35% in size
- conditions.used: HEK293T RXRa-UAS-bla, beta-lactamase ratio, 16 h; series mostly up to 76.8 µM
Records with an inconclusive call do not appear. Active and inactive are the calls of the source. Calls follow the shape of the full dose curve.
// one of active, inactive, no free text

### Prompt Just curious, what result did `Cc1ccc2oc(CN(Cc3ccccc3)C(=O)Nc3c(F)cc(F)cc3F)c(-c3ccc(Cl)cc3)c2c1` get here?
### Response inactive

### Prompt Just curious, what result did `CCC(N)(CO)CO` get here?
### Response inactive

### Prompt Just curious, what result did `C/C=C(\C)C(=O)OCc1ccccc1` get here?
### Response inactive

### Prompt Just curious, what result did `CO[Si](CCCNc1ccccc1)(OC)OC` get here?
### Response inactive

### Prompt Just curious, what result did `NNc1nc(-c2ccccc2)cs1` get here?
### Response inactive

### Prompt Just curious, what result did `O=C1c2ccccc2Cc2ccccc21` get here?
### Response inactive

### Prompt Just curious, what result did `CC1=C(/C=C/C(C)=C/C=C/C(C)=C/C=O)C(C)(C)CCC1` get here?
### Response active

### Prompt Just curious, what result did `COc1cccc(N)c1` get here?
### Response inactive

### Prompt Just curious, what result did `COC(=O)c1cc(Cl)ccc1OC` get here?
### Response inactive

### Prompt Just curious, what result did `CN(C)[C@@H]1C(=O)C(C(N)=O)=C(O)[C@@]2(O)C(=O)C3=C(O)c4c(O)cccc4C[C@H]3C[C@@H]12` get here?
### Response inactive

### Prompt Just curious, what result did `CC1(C)CCC(C)(C)c2cc(C(=O)Nc3ccc(C(=O)O)cc3)ccc21` get here?
### Response active

### Prompt Just curious, what result did `N=C1N=C(N)c2ccccc21` get here?
### Response inactive

### Prompt Just curious, what result did `C1CCCC1` get here?
### Response inactive

### Prompt Just curious, what result did `CC(C)(C)c1ccc(C(=O)O)cc1` get here?
### Response inactive

----------
- method: Human pregnane X receptor (PXR) small molecule agonists, qHTS cell viability counter screen (AID 1346977); also: nearly all actives have a fitted effect of over 50% in size
- conditions.used: PXR-Luc HepG2 viability, CellTiter-Fluor, 24 h; series mostly up to 92.4 µM
Records with an inconclusive call do not appear. Calls of active or inactive are those of the source. The call rests on the fitted dose curve; in most records, active means well fitted cell-killing curve with a large enough effect in the repeat runs; inconclusive means weak or mixed curves, or effect the other way; inactive means flat fitted curve, though single readings scatter.
// one of active, inactive, no free text

### Prompt Just curious, what result did `Cc1cccc2c1cc1ccc3cccc4ccc2c1c34` get here?
### Response inactive

### Prompt Just curious, what result did `CC(C)CCCCCCCCCCCCCCC(=O)O` get here?
### Response inactive

### Prompt Just curious, what result did `CCCCCCCCCCCCCCCCCC[N+](C)(C)Cc1ccccc1` get here?
### Response active

### Prompt Just curious, what result did `Cc1cc(O)c(C(C)(C)C)cc1Sc1cc(C(C)(C)C)c(O)cc1C` get here?
### Response active

### Prompt Just curious, what result did `Clc1ccc2n[nH]nc2c1` get here?
### Response inactive

### Prompt Just curious, what result did `O=C(Nc1cccc(C(F)(F)F)c1)c1cc(Br)cc(Br)c1O` get here?
### Response active

### Prompt Just curious, what result did `Clc1ccc2cc3ccccc3cc2c1` get here?
### Response inactive

### Prompt Just curious, what result did C=C(C)C(=O)OCC(O)COc1ccc(C(C)(C)c2ccc(OCC(O)COC(=O)C(=C)C)cc2)cc1 (configuration not stated) get here?
### Response inactive

### Prompt Just curious, what result did `CN1CCC(Nc2ncc3ncnc(Nc4ccc(F)c(Cl)c4)c3n2)CC1` get here?
### Response active

### Prompt Just curious, what result did `N=C1C=CC(=C(c2ccc(N)cc2)c2ccc(N)cc2)C=C1` get here?
### Response active

### Prompt Just curious, what result did `O=C(O)c1ccc(Cl)c(Cl)c1` get here?
### Response inactive

### Prompt Just curious, what result did `Cc1ccc2oc(CN(Cc3ccccc3)C(=O)Nc3c(F)cc(F)cc3F)c(-c3ccc(Cl)cc3)c2c1` get here?
### Response inactive

----------
- tested.system: Cytochrome P450 3A4 (Homo sapiens) (UniProt P08684)
- Sequence (P08684 whole entry, looked up): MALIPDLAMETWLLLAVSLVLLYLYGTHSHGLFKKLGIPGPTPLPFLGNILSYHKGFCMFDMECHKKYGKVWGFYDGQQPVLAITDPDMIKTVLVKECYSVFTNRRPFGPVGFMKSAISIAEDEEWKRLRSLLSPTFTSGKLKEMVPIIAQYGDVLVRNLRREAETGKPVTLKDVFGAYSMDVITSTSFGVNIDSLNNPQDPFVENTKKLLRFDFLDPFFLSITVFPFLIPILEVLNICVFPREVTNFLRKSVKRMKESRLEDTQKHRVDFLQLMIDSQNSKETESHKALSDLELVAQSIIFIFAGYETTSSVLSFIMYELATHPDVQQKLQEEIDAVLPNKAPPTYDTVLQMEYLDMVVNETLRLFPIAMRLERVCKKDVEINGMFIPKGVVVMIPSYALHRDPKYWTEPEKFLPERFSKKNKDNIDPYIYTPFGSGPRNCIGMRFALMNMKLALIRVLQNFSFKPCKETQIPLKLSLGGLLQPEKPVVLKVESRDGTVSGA
- method: Cytochrome P450 Family 3 Subfamily A Member 4 (CYP3A4) small molecule antagonists: luciferase reporter qHTS assay (AID 1671201); also: nearly all actives have a fitted effect of over 50% in size; also: potency is read from the fitted curve at half-maximal effect
- conditions.used: P450-Glo CYP3A4 enzyme, luciferin luminescence, 1 h; series mostly up to 115 µM
Inconclusive results are not listed. The source made the active and inactive calls. The call rests on the fitted dose curve; in most records, active means well fitted inhibition curve with a large enough effect in the repeat runs; inconclusive means weak or mixed curves; inactive means no such curve, though single readings can be large or run the other way.
property: Potency

[[record]]
compound = "CCCCCCCC[N+](CCCCCCCC)(CCCCCCCC)CCCCCCCC"
tested_system = "Cytochrome P450 3A4 (Homo sapiens) (UniProt P08684)"
property = "Potency"
experimental_result = "1.59 µM (active)"

[[record]]
compound = "CCCCCCCCCCC=O"
tested_system = "Cytochrome P450 3A4 (Homo sapiens) (UniProt P08684)"
property = "Potency"
experimental_result = "inactive"

[[record]]
compound = "O=C(Oc1ccccc1)c1ccccc1C(=O)Oc1ccccc1"
tested_system = "Cytochrome P450 3A4 (Homo sapiens) (UniProt P08684)"
property = "Potency"
experimental_result = "inactive"

[[record]]
compound = "N#CC1(c2ccc(F)cc2)CCC(=O)CC1"
tested_system = "Cytochrome P450 3A4 (Homo sapiens) (UniProt P08684)"
property = "Potency"
experimental_result = "inactive"


### Prompt Entry CCCCCCCCCCCCCC[P+](CCCC)(CCCC)CCCC (tested in a mixture with another compound) has what Potency?
### Response inactive

### Prompt Entry `COC(=O)c1cc(Cl)ccc1OC` has what Potency?
### Response inactive

### Prompt Entry `NNC(=O)c1cccc(C(=O)NN)c1` has what Potency?
### Response 3.99 µM (active)

### Prompt Entry `CCCC(c1cc(C(C)(C)C)c(O)cc1C)c1cc(C(C)(C)C)c(O)cc1C` has what Potency?
### Response 5.09 µM (active)

### Prompt Entry `O=C(Nc1cccc(Cl)c1)OCC#CCCl` has what Potency?
### Response 7.1 µM (active)

### Prompt Entry `CC(C)CCCCCCCCCCCCCCC(=O)O` has what Potency?
### Response inactive

### Prompt Entry `COc1c(C)c2c(c(O)c1C/C=C(\C)CCC(=O)O)C(=O)OC2` has what Potency?
### Response inactive

### Prompt Entry `O=C(OCC(COC(=O)c1ccccc1)(COC(=O)c1ccccc1)COC(=O)c1ccccc1)c1ccccc1` has what Potency?
### Response inactive

----------
- tested.system: Aromatase (Homo sapiens) (UniProt P11511)
- Sequence (P11511 whole entry, looked up): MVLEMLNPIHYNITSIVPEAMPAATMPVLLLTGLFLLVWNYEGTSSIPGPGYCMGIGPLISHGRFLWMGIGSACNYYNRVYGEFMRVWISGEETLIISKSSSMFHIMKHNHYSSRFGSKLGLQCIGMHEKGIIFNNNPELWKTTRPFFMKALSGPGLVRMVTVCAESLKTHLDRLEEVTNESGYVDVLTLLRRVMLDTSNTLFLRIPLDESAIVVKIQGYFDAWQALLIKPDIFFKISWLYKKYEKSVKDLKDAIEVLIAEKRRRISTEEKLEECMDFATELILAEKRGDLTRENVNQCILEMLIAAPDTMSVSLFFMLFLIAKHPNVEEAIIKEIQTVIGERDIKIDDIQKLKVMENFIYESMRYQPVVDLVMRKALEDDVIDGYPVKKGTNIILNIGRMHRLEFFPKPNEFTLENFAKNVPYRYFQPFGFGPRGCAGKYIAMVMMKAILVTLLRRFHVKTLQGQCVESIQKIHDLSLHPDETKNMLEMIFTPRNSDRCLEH
- method: qHTS assay to identify aromatase inhibitors (AID 743083); also: nearly all actives have a fitted effect of over 55% in size
- conditions.used: MCF-7 aro ERE, testosterone-driven ERE luciferase, 24 h; series mostly up to 70.3 µM
Inconclusive results are not listed. Active and inactive are the calls of the source. The call rests on the fitted dose curve; in most records, active means well fitted inhibition curve with a large enough effect in the repeat runs; inconclusive means weak or mixed curves; inactive means no such curve, though single readings can be large or run the other way.
// one of active, inactive, no free text

### Prompt Just curious, what result did CCCCCCCCCCCCCC[P+](CCCC)(CCCC)CCCC (tested in a mixture with another compound) get here?
### Response active

### Prompt Just curious, what result did `Cc1cc(O)c(C(C)(C)C)cc1C(C)(C)C` get here?
### Response active

### Prompt Just curious, what result did `O=c1[nH]cnc2nc[nH]c12` get here?
### Response inactive

### Prompt Just curious, what result did `Oc1ccc(N=Nc2ccccc2)cc1` get here?
### Response inactive

### Prompt Just curious, what result did `Cc1cc(=O)oc2cc(N(C)C)ccc12` get here?
### Response inactive

### Prompt Just curious, what result did `CCCCCCCC/C=C\CCCCCCCCOCCO` get here?
### Response active

----------
- method: qHTS assay to identify small molecule antagonists of the estrogen related receptor (ERR) signaling pathway from Tox21 library - cell viability counter screen (AID 1224834); also: nearly all actives have a fitted effect of over 30% in size; also: potency is read from the fitted curve at half-maximal effect
- conditions.used: ERR reporter cells viability, CellTiter-Fluor, 17.5 h; series mostly up to 92.4 µM
- Procedure: National Center for Advancing Translational Sciences [NCATS] NIH Chemical Genomics Center [NCGC] U.S. Environmental Protection Agency [EPA] National Institutes of Environmental Health Sciences [NIEHS] National Toxicology Program [NTP] […] The ERR cells were dispensed at 2,000 cells/5 ul/well in 1536-well white plates using a Multidrop dispenser. […] After 30-minute incubation at 37 C/5% CO2, the fluorescence intensity in the plates was measured using a ViewLux plate reader.
Inconclusive results are not listed. Calls of active or inactive are those of the source. The call rests on the fitted dose curve; in most records, active means well fitted cell-killing curve with a large enough effect in the repeat runs; inconclusive means weak or mixed curves; inactive means flat fitted curve, though single readings scatter.
property: Potency

Would you please look over these solved cases?
[[record]]
molecule = "N=C1N=C(N)c2cc3ccccc3cc21"
experimental_result = "27.3 µM (active)"

[[record]]
molecule = "CCCCCCCCCCCCc1ccc(O)cc1"
experimental_result = "54.5 µM (active)"

[[record]]
molecule = "O=C(O)c1cc(O)c2c(c1)C(=O)c1cccc(O)c1C2=O"
experimental_result = "inactive"

[[record]]
molecule = "Nc1ccccc1O"
experimental_result = "60.3 µM (active)"

[[record]]
molecule = "CC(C)C(C)(C)C(C)(C)C(C)(C)S"
experimental_result = "inactive"


### Prompt Entry `CCCCCCCC[P+](CCCCCCCC)(CCCCCCCC)CCCCCCCC` has what Potency?
### Response 9.63 µM (active)

### Prompt Entry `Cc1[nH]cnc1C[C@H]1CCc2c(C)c3ccccc3n2C1=O` has what Potency?
### Response 47.4 µM (active)

### Prompt Entry `Cc1cccc(S(=O)(=O)O)c1C` has what Potency?
### Response inactive

### Prompt Entry `CCCC/C=C/CCCCO` has what Potency?
### Response inactive

### Prompt Entry `CCCCCCCCCCCCCCCCCC[N+](C)(C)Cc1ccccc1` has what Potency?
### Response 49 µM (active)
